Biological target: SIRT1 (Homo sapiens, UniProt Q96EB6)
Sequence (Q96EB6 1-747): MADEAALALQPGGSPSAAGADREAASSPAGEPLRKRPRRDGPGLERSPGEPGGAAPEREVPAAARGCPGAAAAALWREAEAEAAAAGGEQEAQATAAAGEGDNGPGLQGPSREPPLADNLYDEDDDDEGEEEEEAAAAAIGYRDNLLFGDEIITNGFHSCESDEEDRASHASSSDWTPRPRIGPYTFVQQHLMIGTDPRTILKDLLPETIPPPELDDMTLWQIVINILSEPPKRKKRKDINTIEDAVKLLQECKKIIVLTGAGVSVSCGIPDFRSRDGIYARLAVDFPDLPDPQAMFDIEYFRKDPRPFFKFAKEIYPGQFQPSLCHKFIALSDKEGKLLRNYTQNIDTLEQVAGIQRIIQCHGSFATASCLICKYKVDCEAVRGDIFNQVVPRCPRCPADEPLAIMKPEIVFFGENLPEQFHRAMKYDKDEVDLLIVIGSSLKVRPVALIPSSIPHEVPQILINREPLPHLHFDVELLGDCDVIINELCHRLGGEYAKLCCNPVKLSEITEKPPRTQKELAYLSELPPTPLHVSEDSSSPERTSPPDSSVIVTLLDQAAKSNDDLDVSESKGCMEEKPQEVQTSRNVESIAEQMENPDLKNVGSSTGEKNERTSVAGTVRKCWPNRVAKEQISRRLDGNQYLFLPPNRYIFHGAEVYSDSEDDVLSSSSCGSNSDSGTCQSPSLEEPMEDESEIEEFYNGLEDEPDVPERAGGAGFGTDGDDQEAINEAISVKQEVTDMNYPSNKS
Experiment: mass spectrometry based SIRT1 deacetylation assay (activation)
Assay type: biochemical
Conditions: 0.5 μM peptide substrate, 120 μM βNAD+, 10 nM SIRT1, 25 min at 25° C.; NA = not active in the assay
reported.endpoint: EC1.5 (concentration of test compound that results in 150% activation of SIRT1) (NM)

COCCN1CCN(Cc2cnc3sc(-c4ccccc4NC(=O)c4sc(-c5cccnc5)nc4C)nc3c2)CC1    16700
Cc1nc(-c2cccc(C(=O)Nc3ccccc3-c3nc4cc(CN5CCNCC5)cnc4s3)c2)cs1    503

[1] COCCN1CCN(Cc2cnc3sc(-c4ccccc4NC(=O)c4cccc(-c5cccc(F)c5F)n4)nc3c2)CC1
[2] O=C(Nc1ccccc1-c1nc2cc(CN3CC[C@@H](F)C3)cnc2s1)c1cccc(-n2cccn2)c1
[3] COCCN1CCN(Cc2cnc3sc(-c4ccccc4NC(=O)c4cccc(-c5cccc(F)c5)n4)nc3c2)CC1
[4] CN(C)Cc1cnc2sc(-c3ccccc3NC(=O)c3cnc4ccccc4n3)nc2c1
[5] COc1cc(C(=O)Nc2ccccc2-c2nc3cc(CN4CCOCC4)cnc3s2)nc2ccccc12
Q: Hello, I need these entries ordered by EC1.5 (concentration of test compound that results in 150% activation of SIRT1), highest reading first. Thanks! Form entry: ranked labels (order as requested).
A: 4, 5, 2, 1, 3
